# experimental_system: SARM1 (Homo sapiens, UniProt Q6SZW1)
# Construct: made in house; host or cells: NRK1-HEK293T cells, transiently transfected; clarified lysate used unpurified
# Sequence (Q6SZW1 with tags, fused parts or gaps): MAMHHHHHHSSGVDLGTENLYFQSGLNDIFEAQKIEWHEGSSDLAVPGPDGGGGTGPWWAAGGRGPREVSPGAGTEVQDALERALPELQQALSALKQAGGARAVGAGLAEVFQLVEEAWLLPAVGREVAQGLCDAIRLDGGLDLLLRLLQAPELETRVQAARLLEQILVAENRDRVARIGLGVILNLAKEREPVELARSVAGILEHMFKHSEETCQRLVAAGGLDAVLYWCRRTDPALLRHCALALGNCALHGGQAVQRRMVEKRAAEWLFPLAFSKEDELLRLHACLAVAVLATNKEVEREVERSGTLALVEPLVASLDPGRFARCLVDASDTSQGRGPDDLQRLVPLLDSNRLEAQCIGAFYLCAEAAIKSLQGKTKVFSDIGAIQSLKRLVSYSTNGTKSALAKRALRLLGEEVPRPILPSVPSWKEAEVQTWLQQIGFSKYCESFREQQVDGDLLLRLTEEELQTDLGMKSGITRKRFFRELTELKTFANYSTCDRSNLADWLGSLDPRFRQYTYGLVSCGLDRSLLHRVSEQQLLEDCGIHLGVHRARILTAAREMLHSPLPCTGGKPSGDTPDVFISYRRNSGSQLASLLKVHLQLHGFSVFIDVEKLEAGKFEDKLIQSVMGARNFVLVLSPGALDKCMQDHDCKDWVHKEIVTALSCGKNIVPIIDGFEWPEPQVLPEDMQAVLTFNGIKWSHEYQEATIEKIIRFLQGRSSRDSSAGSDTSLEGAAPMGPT
# procedure_text: ARM-SAM-TIR SARM1 IC50 assay (NADase activity, NAD+ cleavage)
# Assay type: biochemical
# study_conditions: ARM-SAM-TIR lysate 5 μg/mL from NRK1-HEK293T cells; 2 h pre-incubation; 5 μM NAD+; 2 hr room temperature; NAD+ and ADPR by RapidFire MS; read-out: SARM1 IC50
result_type: IC50

# compound, result_type, measured_value
measured = [
    ("CCN(C)c1cncc(NCc2cccnc2)n1 [Example 30]", "IC50", "> 30 µM"),
    ("CNc1nccc(OC)n1 [Example 162]", "IC50", "> 30 µM"),
    ("COc1cncc(NCc2cccc(C#N)c2)n1 [Example 128]", "IC50", "5 to 15 µM"),
    ("COc1cncc(NCc2ccc(N3CCOCC3)nc2)n1 [Example 77]", "IC50", "5 to 15 µM"),
]

Please look up its IC50: CNc1cncc(OCCCNC(=O)OC(C)(C)C)n1 [Example 168] > 30 µM

Follow-up item: CCN1CCC(n2cc(CNc3cncc(OC)n3)cn2)CC1 [Example 120] < 5 µM

From: patent US12595252B2
